Tested on: MCF7 breast
protocol-description: NCI tumour cell line growth inhibition, 48 h
metric: TGI

Here COC(=O)c1c(C)nc(C)c(NO)c1-c1ccccc1C(F)(F)F was tested on MCF7 breast, and its TGI came to 39.2 µM

The measured TGI that Cc1ccc(C(C)C)cc1NC(=O)Nc1ccc([N+](=O)[O-])cc1 showed for MCF7 breast is 5.72 µM

Summary line: CN(C)c1ccc(/C=C2\N=C(c3ccccc3)N(c3ccc4c(c3)Sc3cc(N5C(=O)/C(=C/c6ccc(N(C)C)cc6)N=C5c5ccccc5)ccc3N4)C2=O)cc1 , MCF7 breast, reported TGI = 32.4 µM

MCF7 breast assay, molecule O=[N+]([O-])c1cccnc1-n1cnc2ccccc21 , recorded TGI = > 100 µM

Next molecule, please.
Fill in: MCF7 breast TGI for CC(=O)O[C@H]1CC[C@@]2(C)[C@H](CC[C@@H]3[C@@H]2CC[C@]2(C)[C@@H](c4ccc(=O)oc4)C[C@H]4O[C@]342)C1 = 22.1 µM

====

Test system: NCI/ADR-RES ovarian
protocol-description: NCI tumour cell line growth inhibition, 48 h
metric: TGI

Each of the following entries comes with a recorded value; kindly state TGI for each.
1. CCOC(=O)C1(C(F)(F)F)N=C(CC)OC(N2CCOCC2)=N1 (stereo not given)
2. CN(C)C(=S)Oc1ccc2ccc(=O)oc2c1
3. C=CC1CN2CCC1CC2C(O)c1ccnc2ccccc12 (stereo not given)
4. NCCOCC(N)C(=O)O (stereo not given)
5. CCOC(=O)C(=O)C(=O)NN(C)C1=NCCN1
6. CC(C)C1(O)C(=O)N(c2c(F)c(F)c(F)c(F)c2F)C(=S)N1CCSc1ccccc1 (stereo not given)
7. CC1(C)CC[C@]2(C(N)=O)CC[C@]3(C)C(=CC[C@@H]4[C@@]5(C)C/C(=C/c6ccncc6)C(=O)C(C)(C)[C@@H]5CC[C@]43C)[C@@H]2C1

> 100 µM
> 100 µM
> 100 µM
> 100 µM
> 100 µM
31 µM
6.99 µM

Below is a list of compounds. For each, state its recorded TGI.
1. O=C(c1ccco1)N(C(=S)OC12CC3CC(CC(C3)C1)C2)c1ccccc1
2. Cc1ccccc1OC(C)C(=O)NN1C(=O)CC(=O)N(c2ccccc2)C1=S (stereo not given)
3. COc1ccc(-c2cc(C(O)C3CCCCN3)c3ccccc3n2)cc1 (stereo not given)

1. > 100 µM
2. > 100 µM
3. 39 µM

====

Test system: MOLT-4 leukemia
Please state which outcome applies, choosing from t for active, f for inactive

Field: outcome | Entry: O=C(Cc1csc2nc(-c3ccc(Br)cc3)cn12)N/N=C/c1ccc(O)cc1
f

Dear colleague, could you share the recorded outcome for O=C(Nc1cccc(-n2cc(-c3ccncc3)c(-c3ccc(O)c(Cl)c3)n2)c1)c1cccc(C(F)(F)F)c1 when you have a moment?
f

Entry CC1(C)OC2C(COS(N)(=O)=O)SC(n3cnc4cncnc43)C2O1 (centres undefined) : call = ?
f

More entries:
Recorded test call requested for Cc1cc(Cl)ccc1NS(=O)(=O)c1ccc(-c2cnc(C3CC3)o2)cc1
t

Test call for this compound, please: Cc1ccc(C(C)C)cc1NC(=O)Nc1ccc([N+](=O)[O-])cc1
f

Hi, sorry to bother you, what did the test record for N[C@@H]1CCCC[C@@H]1N.O=P([O-])([O-])CN(CP(=O)([O-])[O-])CP(=O)([O-])[O-].[Pt+2] ?
f

Answer briefly: the call reported for O=C(NCCCCCCCNC(=O)OCc1ccc2c(Cl)cc(Cl)c(O)c2n1)OCc1ccc2c(Cl)cc(Cl)c(O)c2n1 in this assay.
t

// param item: CO[C@]1(CN2CCN3CCCC[C@@H]3C2)/C=C/C[C@H](C)[C@@H](C)S(=O)(=O)NC(=O)c2ccc3c(c2)N(C[C@@H]2CC[C@H]21)C[C@@]1(CCCc2cc(Cl)ccc21)CO3 ; yields the recorded call
t

Dear colleague, could you share the recorded outcome for Nc1ccc2c(c1)c(N)nn2C(=O)Nc1ccc(Cc2ccccc2)cc1 when you have a moment?
f
